System: LOX IMVI melanoma
Assay: NCI tumour cell line growth inhibition, 48 h
Recorded log10(TGI) by entry
Quantity kind: log10(TGI) (log10 of the value in µM)

INSERT INTO results (compound, quantity_kind, readout_value) VALUES
  ('CC[C@@]1(O)C(=O)OCc2c1cc1n(c2=O)Cc2c-1nc1ccccc1c2/C=N\NC(=O)C(N)Cc1ccc(O)cc1 (stereo not given in full)', 'log10(TGI)', 0.44),
  ('C#Cc1cccc(Nc2nc(C)nc3cc(NC(=O)CCl)ccc23)c1', 'log10(TGI)', -0.02),
  ('CCCCNC(=O)Oc1ccc(/C(=C(\C)c2ccc(OC)cc2)c2ccc(OCCN3CCCCC3)cc2)cc1', 'log10(TGI)', 0.54),
  ('Cc1cc2c3c(nc2c2cc[nH]c(C)c12)CCCC3', 'log10(TGI)', 0.67),
  ('O=[N+]([O-])c1cc(I)cc(/C=N/NS(=O)(=O)c2ccc(F)cc2)c1O', 'log10(TGI)', 1.76),
  ('CC1(C)CC[C@]2(C)[C@@H](O)C[C@]3(C)C(=CC[C@@H]4[C@@]5(C)CC[C@H](O)C(C)(C)[C@@H]5CC[C@]43C)[C@@H]2C1', 'log10(TGI)', 1.66),
  ('COc1ccccc1N1C(=O)CSC1c1cccc(Oc2ccccc2)c1 (stereo not given)', 'log10(TGI)', 1.51),
  ('Oc1c(CN2CCCCC2)ccc2cccnc12', 'log10(TGI)', 1.24),
  ('COC(=O)c1ccc(NCC2=CC(=O)C=CC2=O)cc1O', 'log10(TGI)', 1.57);
